Cited source: ChEMBL document CHEMBL3351364

- test details: Toxicity in po dosed male SHK mouse
- Assay type: organism-based
- applied conditions: male, SHK, in vivo
measured attribute: LD50
Put down the number, then write its unit next to it.

Please fill in: LD50 reported for COC(=O)N[C@H](C(=O)N1CCCC1c1ncc(C#CC#Cc2ccc(-c3cnc(C4CCCN4C(=O)[C@@H](NC(=O)OC)C(C)C)[nH]3)cc2)[nH]1)C(C)C.Cl (single isomer, unassigned; 13a) = 3440 mg/kg

====

- test details: Toxicity in ip dosed male Wistar rat
- Assay type: organism-based
- applied conditions: male, Wistar, in vivo
measured attribute: LD50 (mg/kg)
API: value field is a number in mg/kg; no unit string.

Please fill in: LD50 reported for COC(=O)N[C@H](C(=O)N1CCCC1c1ncc(C#CC#Cc2ccc(-c3cnc(C4CCCN4C(=O)[C@@H](NC(=O)OC)C(C)C)[nH]3)cc2)[nH]1)C(C)C.Cl (single isomer, unassigned; 13a) = 349
